Test system: SK-OV-3 ovarian
assay_explanation: NCI tumour cell line growth inhibition, 48 h
measurement_kind: TGI

Exercise: State the recorded TGI for this entry: CC(=O)OC1OC(c2ccoc2)C[C@@]12C1CCC3O[C@]3(C)[C@]1(C)[C@H](OC(C)=O)[C@H](OC(C)=O)[C@H]2C (stereo partly specified)
Solution: > 37.5 µM

Exercise: Please give the result for C[C@@H]1[C@H](O)CC2=C(CC[C@@H](O)C2(C)C)[C@@]1(CO)CCc1ccoc1 too.
Solution: > 50 µM

Exercise: # iterate: Cc1cccc(NC(=O)O/N=C(\Cl)C(C)C)c1
Solution: 31.7 µM

Exercise: Now the molecule Cc1c(O)c(OC2OC(CO)C(O)C(O)C2O)cc2c1CC[C@@H]1C2(C)C(=O)C[C@]2(C)[C@@H]([C@@](C)(O)C3CCC(C)(C)O3)[C@H](O)C[C@@]12C (stereo partly specified)
Solution: > 100 µM

Exercise: Now try Cc1cc(N(CCC#N)CCC#N)ccc1N=Nc1cc(Cl)ccc1Cl .
Solution: 29.9 µM

Exercise: Field entry: O=C1c2c(O)cc(O)cc2C(C2OC(CO)C(O)C(O)C2O)c2cc(CO)cc(O)c21 (stereo unspecified)
Solution: > 100 µM

Exercise: Also COc1cc2cc(C(=O)N3CC(CCl)c4ccc([N+](C)(C)Cc5ccc([N+](=O)[O-])cc5)cc43)[nH]c2c(OC)c1OC (stereo unspecified) ?
Solution: 9.64 µM

Exercise: Field entry: C=CC(COC(=O)C(C)(C)OC(C)=O)c1ccc(OC(=O)C(C)C)c(OC)c1 (stereo unspecified)
Solution: 30.8 µM

Exercise: Proceed to CC1C2CCC3C(O)C2(CC(O)C2(O)C1CC(O)C2(C)C)CC3(C)O (stereo unspecified)
Solution: > 100 µM

Exercise: What about this molecule? CC[C@H](C)C1=C(OC(C)=O)[N@+]2([O-])Oc3ccc(-c4c(O)c(O)c(-c5ccc(OC(C)=O)cc5)c(OC(C)=O)c4OC(C)=O)cc3O[C@]2([C@@H](C)CC)C(=O)N1O
Solution: > 50 µM

Exercise: # repeat for CC1(C)CCCC2(C)C3C(O)CC2(C)C(O)C31 (stereo unspecified)
Solution: > 100 µM
